Tested On: T1, TROP2 (UniProt P09758 27-323, limits assumed)
T1 sequence (looked up): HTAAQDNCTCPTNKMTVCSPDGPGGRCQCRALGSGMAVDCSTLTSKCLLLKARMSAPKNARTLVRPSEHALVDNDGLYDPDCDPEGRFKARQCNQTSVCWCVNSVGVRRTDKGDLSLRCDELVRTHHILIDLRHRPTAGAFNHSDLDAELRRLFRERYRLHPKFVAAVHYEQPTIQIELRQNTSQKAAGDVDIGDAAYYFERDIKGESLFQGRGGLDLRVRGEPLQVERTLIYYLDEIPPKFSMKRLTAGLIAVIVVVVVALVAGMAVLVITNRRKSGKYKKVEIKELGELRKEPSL
Assay Name: cell-based or functional assay
Result Type: Relative activity (%), inhibition of BxPC-3 cell proliferation
Note: unit % is implicit; provide only the numeric part.

Consider the following illustrative entries.
| Binder | Display Unit | Observed Value |
| --- | --- | --- |
| hRS7-CPT006-D4 (antibody, human IgG1, kappa, V domains shown, linker-drug CPT006 on cysteines of reduced interchain disulfides; label D4) VH: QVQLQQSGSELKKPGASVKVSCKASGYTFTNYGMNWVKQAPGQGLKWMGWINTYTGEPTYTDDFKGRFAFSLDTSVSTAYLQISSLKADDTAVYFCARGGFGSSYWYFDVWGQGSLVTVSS VL: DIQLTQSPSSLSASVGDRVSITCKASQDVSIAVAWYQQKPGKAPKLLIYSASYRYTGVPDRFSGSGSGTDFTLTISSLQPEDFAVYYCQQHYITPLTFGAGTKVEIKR | % | 60.4 |
| hRS7-CPT005-D4 (antibody, human IgG1, kappa, V domains shown, linker-drug CPT005 on cysteines of reduced interchain disulfides; label D4) VH: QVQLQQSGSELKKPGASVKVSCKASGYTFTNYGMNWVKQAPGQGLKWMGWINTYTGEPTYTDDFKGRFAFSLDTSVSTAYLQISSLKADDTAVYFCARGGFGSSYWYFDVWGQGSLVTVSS VL: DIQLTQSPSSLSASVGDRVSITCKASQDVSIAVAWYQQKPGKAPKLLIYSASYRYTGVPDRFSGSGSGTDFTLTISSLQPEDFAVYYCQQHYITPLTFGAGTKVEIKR | % | 155 |
| hRS7-CPT004-D4 (antibody, human IgG1, kappa, V domains shown, linker-drug CPT004 on cysteines of reduced interchain disulfides; label D4) VH: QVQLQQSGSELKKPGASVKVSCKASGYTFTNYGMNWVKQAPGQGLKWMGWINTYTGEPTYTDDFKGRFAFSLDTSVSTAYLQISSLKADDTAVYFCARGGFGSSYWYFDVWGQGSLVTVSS VL: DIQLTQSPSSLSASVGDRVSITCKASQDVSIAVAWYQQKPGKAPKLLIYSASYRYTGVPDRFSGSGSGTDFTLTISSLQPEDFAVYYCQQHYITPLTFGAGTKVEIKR | % | 109 |

Query: What does the record list as Relative activity (%), inhibition of BxPC-3 cell proliferation for hRS7-CL2A-SN38-D8 (antibody, human IgG1, kappa, V domains shown, CL2A-SN38 on cysteines of reduced interchain disulfides; label D8) VH: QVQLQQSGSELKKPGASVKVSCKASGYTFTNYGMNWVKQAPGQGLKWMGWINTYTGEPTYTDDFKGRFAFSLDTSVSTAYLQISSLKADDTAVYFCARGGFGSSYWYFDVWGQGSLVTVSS VL: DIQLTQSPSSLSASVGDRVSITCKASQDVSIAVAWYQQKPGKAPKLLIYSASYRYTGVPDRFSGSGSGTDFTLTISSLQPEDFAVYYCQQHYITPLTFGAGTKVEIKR ?
Reply: 100

Query: Same read-out for hRS7-CPT009-D4 (antibody, human IgG1, kappa, V domains shown, linker-drug CPT009 on cysteines of reduced interchain disulfides; label D4) VH: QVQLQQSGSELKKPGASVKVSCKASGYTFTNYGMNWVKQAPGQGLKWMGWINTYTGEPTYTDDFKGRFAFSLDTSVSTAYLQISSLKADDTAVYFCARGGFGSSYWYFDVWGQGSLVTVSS VL: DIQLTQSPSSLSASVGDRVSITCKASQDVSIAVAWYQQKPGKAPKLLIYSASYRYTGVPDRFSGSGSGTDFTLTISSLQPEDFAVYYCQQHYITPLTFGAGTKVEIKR ?
Reply: 50.7

Query: // repeat for DXD (deruxtecan)-conjugated sacituzumab (hRS7-DXD) (antibody, human IgG1, kappa, V domains shown, deruxtecan (DXD) on cysteines of reduced interchain disulfides; label D4) VH: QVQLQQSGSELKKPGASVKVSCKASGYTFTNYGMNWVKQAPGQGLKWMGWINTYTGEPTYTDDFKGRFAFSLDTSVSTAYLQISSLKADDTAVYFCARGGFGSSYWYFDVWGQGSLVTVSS VL: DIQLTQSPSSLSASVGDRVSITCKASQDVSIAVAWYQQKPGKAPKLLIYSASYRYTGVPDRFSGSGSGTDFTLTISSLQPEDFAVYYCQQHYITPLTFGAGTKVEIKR and report
Reply: 100
